B1: unnamed (parent)
chain 1: HMGGQDKPFLSAWPSAVVPRGGHVTLRCHYRHRFNNFMLYKEDRIHIPIFHGRIFQESFNMSPVTTAHAGNYTCRGSHPHSPTGWSAPSNPVVIMVTGNHRKPSLLAHPGPLVKSGERVILQCWSDIMFEHFFLHKEGISKDPSRLVGQIHDGVSKANFSIGPMMLALAGTYRCYGSVTHTPYQLSAPSDPLDIVVTGPYEKPSLSAQPGPKVQAGESVTLSCSSRSSYDMYHLSREGGAHERRLPAVRKVNRTFQADFPLGPATHGGTYRCFGSFRHSPYEWSDPSDPLLVSVTGNPSSSWPSPTEPSSKSGNPRHLHILIGTSVVIILFILLLFFLLHLWCSNKKNAAVMDQEPAGNRTANSEDSDEQDPEEVTYAQLDHCVFTQRKITRPSQRPKTPPTDTILYTELPNAKPRSKVVSCP
chain 2: not shown
chain 3: not shown
chain 4: TSTLQEQIDW

- Variants of: B1
- test-method-notes: tetramer staining of transfected HEK293 cells
- measurement-context: with partner chain of the complex shown; 0.2 μg tetramer; read off a plot
Could you mark each record criterion met if its response (% of *001 TW10) falls strictly under 50, and criterion not met if it equals or exceeds it?

mutant-label | qualitative-label
chain 1 L166A | criterion not met

Req: In plain terms, does chain 1 E282Q come in under 50 for response (% of *001 TW10)?
Resp: criterion not met

Req: In plain terms, does chain 1 E282A come in under 50 for response (% of *001 TW10)?
Resp: criterion met

Req: In plain terms, does chain 1 A167G come in under 50 for response (% of *001 TW10)?
Resp: criterion met

Req: In plain terms, does chain 1 L166V come in under 50 for response (% of *001 TW10)?
Resp: criterion met
